A collection of molecules and their measured N-term IgG
Target: T1, B3GNT2 (Homo sapiens, UniProt Q9NY97)
T1 construct: The respective ORFs of candidate genes [CD274 (NM_014143), MCL1 (NM_021960), JUNB (NM_002229), and B3GNT2 (NM_006577)] were synthesized; expressed in transfected cells; host or cells: A375 melanoma cells (lentiviral ORF overexpression)
T1 sequence (Q9NY97 1-397): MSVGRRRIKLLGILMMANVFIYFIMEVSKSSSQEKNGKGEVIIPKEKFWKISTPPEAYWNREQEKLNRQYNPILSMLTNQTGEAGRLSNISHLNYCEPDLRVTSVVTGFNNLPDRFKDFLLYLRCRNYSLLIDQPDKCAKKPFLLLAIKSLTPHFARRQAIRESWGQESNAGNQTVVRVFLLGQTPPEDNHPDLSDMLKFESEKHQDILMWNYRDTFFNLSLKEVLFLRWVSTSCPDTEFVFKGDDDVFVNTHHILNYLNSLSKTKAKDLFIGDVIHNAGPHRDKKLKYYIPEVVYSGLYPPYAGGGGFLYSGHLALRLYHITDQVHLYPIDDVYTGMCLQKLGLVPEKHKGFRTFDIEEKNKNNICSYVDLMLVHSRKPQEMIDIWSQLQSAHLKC
Test: Co-IP of FLAG-tagged B3GNT2 followed by mass spectrometry
Type: cell-based
Details: Co-IP with IgG control antibody, N-terminally FLAG-tagged B3GNT2; mass spectrometry count, unit not given
Measured Metric: N-term IgG

molecule="RCN1 (protein) KPTVRKERVVRPDSELGERPPEDNQSFQYDHEAFLGKEDSKTFDQLTPDESKERLGKIVDRIDNDGDGFVTTEELKTWIKRVQKRYIFDNVAKVWKDYDRDKDDKISWEEYKQATYGYYLGNPAEFHDSSDHHTFKKMLPRDERRFKAADLNGDLTATREEFTAFLHPEEFEHMKEIVVLETLEDIDKNGDGFVDQDEYIADMFSHEENGPEPDWVLSEREQFNEFRDLNKDGKLDKDEIRHWILPQDYDHAQAEARHLVYESDKNKDEKLTKEEILENWNMFVGSQATNYGEDLTKNHDEL" measured_metric="N-term IgG" result=0
molecule="ERLIN1 (protein) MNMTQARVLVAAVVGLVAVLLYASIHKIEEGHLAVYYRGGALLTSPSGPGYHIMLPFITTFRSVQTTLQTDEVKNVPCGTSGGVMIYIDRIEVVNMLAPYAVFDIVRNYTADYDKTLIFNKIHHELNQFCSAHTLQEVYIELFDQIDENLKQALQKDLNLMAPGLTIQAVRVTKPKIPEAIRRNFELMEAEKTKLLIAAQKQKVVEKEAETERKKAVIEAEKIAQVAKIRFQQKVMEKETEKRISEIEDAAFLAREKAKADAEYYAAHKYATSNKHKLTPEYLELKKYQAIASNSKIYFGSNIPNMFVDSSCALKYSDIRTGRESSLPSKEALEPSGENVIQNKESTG" measured_metric="N-term IgG" result=0
